B1: tRNA (parent)
chain: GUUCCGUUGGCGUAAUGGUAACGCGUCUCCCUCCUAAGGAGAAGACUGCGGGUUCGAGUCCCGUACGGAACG

variants of: B1; test: yeast fitness, log relative to wild type (ln ratio); higher = fitter; tRNA-Arg(CCU), competitive growth, 37 C, 1 M NaCl
measure: yeast fitness (ln)
Please respond with just the number, no unit label.

Study these solved cases before continuing.
sequenceChange: G6U C27U A43C C46U C66U A69G A70U
valueReported: -0.416

sequenceChange: C27U C66A A70G
valueReported: -0.0873

// moving on: another record for yeast fitness (ln)
Value of yeast fitness (ln) reported for the variant G1A U2G G6U C66U A70U is -0.211
